test system: rodent lifetime carcinogenesis bioassay, tumor incidence TD50; experiment: carcinogenic potency in animals, long-term in vivo studies, CPDB compilation (AID 1745844); details: rat; strain Osborne-Mendel; females; by gavage; site: adrenal gland; lesion: cortical adenoma; dosed 103 weeks; study length 104 weeks
experimental_readout: TD50 (mg/kg/day)

ClC=C(Cl)Cl :: 556

* * *

test system: rodent lifetime carcinogenesis bioassay, tumor incidence TD50; assay: carcinogenic potency in animals, long-term in vivo studies, CPDB compilation (AID 1745844); conditions: rat; strain Charles River CD (Sprague-Dawley); males; inhaled; site: testis; lesion: interstitial-cell adenoma; dosed 105 weeks; study length 105 weeks
experimental_readout: TD50

FC(F)(F)C(Cl)Cl :: 9050 mg/kg/day
